- Subject Of Test: human CB1 receptors (Homo sapiens (Human))
- Sequence (P21554 whole entry): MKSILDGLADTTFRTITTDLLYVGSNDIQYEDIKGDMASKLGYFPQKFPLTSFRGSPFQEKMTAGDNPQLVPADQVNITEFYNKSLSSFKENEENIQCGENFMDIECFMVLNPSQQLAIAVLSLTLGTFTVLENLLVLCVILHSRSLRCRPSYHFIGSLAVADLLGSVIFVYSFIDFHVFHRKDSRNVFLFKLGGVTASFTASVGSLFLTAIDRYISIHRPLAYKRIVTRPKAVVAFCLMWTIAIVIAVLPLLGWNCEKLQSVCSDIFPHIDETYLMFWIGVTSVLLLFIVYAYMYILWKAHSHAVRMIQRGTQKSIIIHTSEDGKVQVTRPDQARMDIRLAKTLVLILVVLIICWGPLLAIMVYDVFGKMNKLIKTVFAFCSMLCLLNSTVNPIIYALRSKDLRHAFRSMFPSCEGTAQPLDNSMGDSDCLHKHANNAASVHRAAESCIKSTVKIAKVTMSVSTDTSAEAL
- Method Description: cAMP assay, CHO cells expressing human CB1 receptors
- Type: cell-based
- Particulars: CHO cells expressing human CB1, cAMP; read-out: human CB1 EC50
pEC50: −log10 of the molar value.
Measure Name: pEC50

[[record]]
molecular_string = "CCC(CC)(NC(=O)c1ccc(C2CC2)c(OCC2CC2)n1)C(=O)NCCOC"
measured_value = "< 5.00"

[[record]]
molecular_string = "Cc1nc(C(C)(C)NC(=O)c2ccc(C3CCOCC3)c(OCC3CC3)n2)no1"
measured_value = "< 5.00"

[[record]]
molecular_string = "CC(C)(CCN1CCOCC1)NC(=O)c1ccc(C2CC2)c(OCC2CC2)n1"
measured_value = "< 5.00"

